Could you please report measured pIC50 for the items listed next?
# measured target: PLK1 PBD (Homo sapiens)
# Sequence (P53350 367-603 limits assumed): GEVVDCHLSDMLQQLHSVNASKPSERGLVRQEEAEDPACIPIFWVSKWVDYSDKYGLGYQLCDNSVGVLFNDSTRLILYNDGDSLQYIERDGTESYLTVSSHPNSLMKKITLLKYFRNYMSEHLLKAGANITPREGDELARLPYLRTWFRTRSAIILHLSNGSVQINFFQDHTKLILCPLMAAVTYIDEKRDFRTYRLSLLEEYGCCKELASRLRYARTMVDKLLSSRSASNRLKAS
# assay protocol: Fluorescence polarization competitive binding assay, PLK1 PBD
Square brackets hold non-standard residues; d marks the D form. Peptide text beside a SMILES is read from it. * marks the point of attachment. pT = C[C@@H](OP(=O)(O)O)[C@H](N)C(=O)O; X2 = O=C(c1ccc(OCc2ccc(F)cc2)cc1)*
Numbers only, as −log10 of the molar value.

| compound | reported endpoint | value |
| --- | --- | --- |
| CC(C)C[C@H](NC(=O)CNC(=O)[C@H](CC(N)=O)NC(=O)[C@@H]1CCCN1C(=O)[C@@H](NC(=O)[C@H](CO)NC(=O)c1ccc(OCc2ccc(F)cc2)cc1)[C@@H](C)OP(=O)(O)O)C(=O)O [Compound 5] (X2-S[pT]PNGL-OH; C-terminus assumed) | pIC50 | 5.30 |
| CC(C)C[C@H](NC(=O)CNC(=O)[C@H](CC(N)=O)NC(=O)[C@@H]1CCCN1C(=O)[C@@H](NC(=O)[C@H](CO)NC(=O)[C@@H](NC(=O)[C@H](C)NC(=O)[C@H](CC(C)C)NC(=O)[C@@H]1CCCN1C(=O)CN)[C@@H](C)O)[C@@H](C)OP(=O)(O)O)C(=O)O [SEQ ID NO: 8, GPLATS[pT]PNGL] (H-GPLATS[pT]PNGL-OH; N-terminus and C-terminus assumed) | pIC50 | 7.96 |
| CC(C)C[C@H](NC(=O)[C@@H]1CCCN1C(=O)CN)C(=O)N[C@@H](C)C(=O)N[C@H](C(=O)N[C@@H](CO)C(=O)N[C@H](C(=O)N1CCC[C@H]1C(=O)N[C@@H](CCCCN)C(=O)N[C@@H](CC(N)=O)C(=O)NCC(=O)O)[C@@H](C)OP(=O)(O)O)[C@@H](C)O [SEQ ID NO: 7, GPLATS[pT]PKNG, reference compound] (H-GPLATS[pT]PKNG-OH; N-terminus and C-terminus assumed) | pIC50 | 8.24 |

Now turn to the next compound.
Q. Give the reported pIC50 for this compound. CC[C@H](C)[C@H](NC(=O)[C@H](C)NC(=O)[C@@H](NC(=O)[C@H](CO)NC(=O)[C@H](Cc1c[nH]cn1)NC(=O)[C@H](CC(C)C)NC(C)=O)[C@@H](C)OP(=O)(O)O)C(=O)O [SEQ ID NO: 5, Ac-LHS[pT]Al] (Ac-LHS[pT]AI-OH; C-terminus assumed)
A. 5.80

The origin of these recorded values is patent US20190269784A1.
